studyTarget: human CYP2C9, CYP2C9 (gene 1559) (UniProt P11712)
Sequence (P11712 whole entry, looked up): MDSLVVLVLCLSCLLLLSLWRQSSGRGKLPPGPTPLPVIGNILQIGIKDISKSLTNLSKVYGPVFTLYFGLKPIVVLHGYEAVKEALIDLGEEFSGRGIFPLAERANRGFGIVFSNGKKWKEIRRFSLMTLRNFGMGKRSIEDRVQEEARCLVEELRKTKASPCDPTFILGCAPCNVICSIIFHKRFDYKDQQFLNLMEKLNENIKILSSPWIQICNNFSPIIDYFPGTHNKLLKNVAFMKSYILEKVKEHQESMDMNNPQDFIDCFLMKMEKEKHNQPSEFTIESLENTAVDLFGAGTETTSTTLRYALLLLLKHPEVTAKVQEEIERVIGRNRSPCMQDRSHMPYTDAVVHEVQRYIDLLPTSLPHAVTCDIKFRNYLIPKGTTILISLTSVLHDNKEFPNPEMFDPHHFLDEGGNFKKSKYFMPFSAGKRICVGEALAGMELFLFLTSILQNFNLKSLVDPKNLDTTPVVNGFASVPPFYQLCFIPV
assayOverview: NVS_ADME_hCYP2C9: NovaScreen (NVS) CYP450-related Enzyme Activity (ADME) Assay for human CYP2C9 (AID 2283108)
Records with an inconclusive call do not appear. The source made the active and inactive calls. How the source made its calls: active means hit-call score of the fitted dose curve at least 0.9, where 1 is the maximum; inconclusive means response in the unintended direction; inactive means score below 0.9.
Choose one outcome from this list and give only that: t (active), f (inactive)

Some entries whose results are on file:
CC(C)(O)c1coc(S(=O)(=O)NC(=O)Nc2c3c(cc4c2CCC4)CCC3)c1
t
CNS(=O)(=O)c1cc(C(=O)N2CCC(CCN3C4CCC3CC(n3c(C)nc5ccccc53)C4)(c3cccc(F)c3)CC2)c(Cl)cc1F (configuration not stated)
t
O=P(OC(CCl)CCl)(OC(CCl)CCl)OC(CCl)CCl
f
CC(=O)OCCC(C)C
t

Answer briefly: the call reported for "Cc1ccc(N)cc1O" in this assay.
t

Try the compound "Cc1[nH]cnc1C[C@H]1CCc2c(C)c3ccccc3n2C1=O"
t

* * *

Read-out: succinate dehydrogenase complex iron sulfur subunit B (SDHB), SDHB (gene 6390)
assayOverview: LTEA_HepaRG_SDHB: Life Technologies and Expression Analysis (LTEA) Assay for succinate dehydrogenase complex iron sulfur subunit B (SDHB) using HepaRG (AID 2283528)
condition: mRNA level, 48 h; actives raise or lower the signal
Description: LTEA_HepaRG is a cell based, multiplexed-readout assay that uses HepaRG, a human liver cell line, with measurements taken at 48 hours after chemical dosing on a 96-well plate.LTEA_HepaRG_SDHB is one of 102 assay component(s) measured in the LTEA HepaRG cell culture assay. It is a marker of Cell proliferation, survival, death.Data from the assay component LTEA_HepaRG_SDHB was analyzed into 1 endpoint. […]
Calls of active or inactive are those of the source. How the source made its calls: active means hit-call score of the fitted dose curve at least 0.9, where 1 is the maximum; inactive means score below 0.9.
Choose one outcome from this list and give only that: 1.0 (active), 0.0 (inactive)

Answer briefly: the call reported for "NC(=O)NO" in this assay.
0.0

* * *

studyTarget: Mitogen-activated protein kinase 3 (Homo sapiens)
assayOverview: NVS_ENZ_hMAPK3: NovaScreen (NVS) Enzymatic Assay for human Mitogen-Activated Protein Kinase 3 (MAPK 3) (AID 2283177)
Inconclusive results are not listed. Calls of active or inactive are those of the source. The calls were made as follows: active = hit-call score of the fitted dose curve at least 0.9, where 1 is the maximum; inconclusive = response in the unintended direction; inactive = score below 0.9.
Choose one outcome from this list and give only that: class 1 (active), class 0 (inactive)

O=C(O)c1cccc(N(Cc2cccnc2)c2ccc(OC(F)F)c(OC(F)F)c2)c1
class 0
Cn1c(=O)cc(Oc2ccc(F)cc2F)c2cnc(NCC(C)(C)O)nc21
class 1
CC[C@H](C)C(=O)O[C@H]1C[C@@H](C)C=C2C=C[C@H](C)[C@H](CC[C@@H]3C[C@@H](O)CC(=O)O3)[C@H]21
class 0
Cc1ccc(N)cc1O
class 1
CC(C)c1cccc(C(C)C)c1N1C(=O)c2ccc(O)cc2C1=O
class 0

Answer briefly: the call reported for CCCCC(CC)COC(=O)CCCCCCCCC(=O)OCC(CC)CCCC (stereo unspecified) in this assay.
class 0

* * *

assayOverview: APR_HepG2_p53Act_72hr: Apredica 72-hour HepG2 Assay for p53 Activation (AID 2282923);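 further: average cellular p53 protein immunofluorescence intensity in HepG2 cells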
condition: high-content imaging, actives raise or lower the signal
Active and inactive are the calls of the source. The calls were made as follows: active = hit-call score of the fitted dose curve at least 0.9, where 1 is the maximum; inactive = score below 0.9.
measuredProperty: AC50

These recorded examples may help you get a feel for the data.
On1ccccc1=S
8.59 µM (active)
O=C(O)CCN(C1(C(=O)NO)CCCC1)S(=O)(=O)c1ccc(Oc2ccc(F)cc2)cc1
inactive
CCNc1ccccc1
inactive
CCOC(=O)c1ccc(C2CCC(NC[C@H](O)COc3ccc(O)c(NS(C)(=O)=O)c3)CC2)cc1 (some centres not stated)
14.5 µM (active)
COc1ccc(/C=C/S(=O)(=O)NC(=O)c2ccc(C)cc2Cl)cc1
113 µM (active)
CC(O)CN(CCN(CC(C)O)CC(C)O)CC(C)O (configuration not stated)
inactive
Cc1c(-c2cccnc2)c2ccccc2n1CCCCC(=O)O
inactive
C=CC(=C)CCC=C(C)C
inactive

Alright, here's another compound for you.
Suppose we examine the compound "COC(=O)CC(=O)OC" ; what AC50 value has been reported?
inactive

* * *

studyTarget: Muscarinic acetylcholine receptor M1 (Homo sapiens) (UniProt P11229)
Sequence (P11229 whole entry, looked up): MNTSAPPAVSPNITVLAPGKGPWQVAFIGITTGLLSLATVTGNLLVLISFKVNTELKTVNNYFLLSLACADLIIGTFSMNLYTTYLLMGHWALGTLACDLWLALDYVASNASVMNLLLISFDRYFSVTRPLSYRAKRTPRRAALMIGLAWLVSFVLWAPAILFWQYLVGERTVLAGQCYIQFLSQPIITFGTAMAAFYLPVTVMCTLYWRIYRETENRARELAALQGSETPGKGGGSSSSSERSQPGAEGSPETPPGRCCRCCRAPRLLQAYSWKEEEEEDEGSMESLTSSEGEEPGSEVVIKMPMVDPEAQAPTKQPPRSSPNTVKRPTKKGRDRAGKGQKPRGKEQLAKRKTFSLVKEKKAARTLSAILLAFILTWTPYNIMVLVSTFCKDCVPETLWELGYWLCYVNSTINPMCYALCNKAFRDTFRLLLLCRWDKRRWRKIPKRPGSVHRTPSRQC
assayOverview: NVS_GPCR_hM1: NovaScreen (NVS) G Protein-Coupled Receptor Assay for human Muscarinic, M1 Receptor (AID 2283270)
Records with an inconclusive call do not appear. The source made the active and inactive calls. The calls were made as follows: active = hit-call score of the fitted dose curve at least 0.9, where 1 is the maximum; inconclusive = response in the unintended direction; inactive = score below 0.9.
Choose one outcome from this list and give only that: 1.0 (active), 0.0 (inactive)

Some entries whose results are on file:
Cc1[nH]cnc1C[C@H]1CCc2c(C)c3ccccc3n2C1=O
0.0
CC[C@H]1CC[C@H](NCc2cc3c(cc2OC)[C@H]2C[C@H]2C(=O)N3C)[C@H](c2ccccc2)N1
1.0
COc1cccc(-c2ccc(/C=C\CN3CCCCCC3)cc2Cl)c1
1.0

We now examine a further compound.
Answer briefly: the call reported for CCOC(=O)c1ccc(C2CCC(NC[C@H](O)COc3ccc(O)c(NS(C)(=O)=O)c3)CC2)cc1 (some centres undefined) in this assay.
1.0

* * *

studyTarget: Paired box protein Pax-6 (Homo sapiens)
assayOverview: ATG_Pax6_CIS: Attagene CIS-FACTORIAL HepG2 Assay for human Paired Box 6 (PAX6) (AID 2282956)
condition: HepG2 CIS-FACTORIAL PAX6 reporter transcription, RNA readout; actives raise or lower the signal
Active and inactive are the calls of the source. Rule for the calls: active = hit-call score of the fitted dose curve at least 0.9, where 1 is the maximum; inactive = score below 0.9.
Choose one outcome from this list and give only that: active, inactive

C=CCCCCCCCCC(=O)O
inactive

Answer briefly: the call reported for "CCOCCO" in this assay.
inactive

Try the compound "C=CC(=C)CCC=C(C)C"
inactive

* * *

studyTarget: human CYP2B6, CYP2B6 (gene 1555)
assayOverview: NVS_ADME_hCYP2B6: NovaScreen (NVS) CYP450-related Enzyme Activity (ADME) Assay for human CYP2B6 (AID 2283101)
Results filed as inconclusive are left out. Activity calls are given as the source filed them. Rule for the calls: active = hit-call score of the fitted dose curve at least 0.9, where 1 is the maximum; inconclusive = response in the unintended direction; inactive = score below 0.9.
measuredProperty: AC50

These recorded examples may help you get a feel for the data.
CC(=O)OCCC(C)C
inactive
Nc1ccc(Nc2ccccc2)cc1
4.35 µM (active)
CCOC(=O)c1ccc(C2CCC(NC[C@H](O)COc3ccc(O)c(NS(C)(=O)=O)c3)CC2)cc1 (some centres not stated)
inactive
O=P(OC(CCl)CCl)(OC(CCl)CCl)OC(CCl)CCl
6.54 µM (active)
CCCCCCc1ccc(O)cc1O
4.64 µM (active)

Suppose we examine the compound "CC(C)(O)c1coc(S(=O)(=O)NC(=O)Nc2c3c(cc4c2CCC4)CCC3)c1" ; what AC50 value has been reported?
6.39 µM (active)

Try the compound "CN(C)c1ccc(Cc2ccc(N(C)C)cc2)cc1"
1.02 µM (active)

* * *

studyTarget: Retinoic acid receptor RXR-alpha (Homo sapiens) (UniProt P19793)
Sequence (P19793 whole entry, looked up): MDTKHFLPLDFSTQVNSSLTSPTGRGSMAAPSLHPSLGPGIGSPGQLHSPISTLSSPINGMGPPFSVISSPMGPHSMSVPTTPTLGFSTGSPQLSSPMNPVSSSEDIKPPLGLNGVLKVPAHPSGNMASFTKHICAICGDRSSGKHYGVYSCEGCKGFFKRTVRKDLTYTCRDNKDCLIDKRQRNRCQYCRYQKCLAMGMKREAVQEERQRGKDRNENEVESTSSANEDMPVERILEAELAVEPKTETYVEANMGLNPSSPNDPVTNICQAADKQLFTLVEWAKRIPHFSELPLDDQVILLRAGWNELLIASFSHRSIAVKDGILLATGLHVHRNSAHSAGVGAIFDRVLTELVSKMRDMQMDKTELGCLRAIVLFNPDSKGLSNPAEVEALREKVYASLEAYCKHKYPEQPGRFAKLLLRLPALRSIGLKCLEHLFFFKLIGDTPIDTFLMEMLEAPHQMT
assayOverview: OT_NURR1_NURR1RXRa_1440: Odyssey Thera (OT) 24-hour HEK293T Protein Complementation Assay for Nurr1/retinoid X receptor (RXR) (AID 2283386)
Inconclusive results are not listed. Active and inactive are the calls of the source. How the source made its calls: active means hit-call score of the fitted dose curve at least 0.9, where 1 is the maximum; inconclusive means response in the unintended direction; inactive means score below 0.9.
measuredProperty: AC50

These recorded examples may help you get a feel for the data.
O=C1OC(=O)C2C3C=CC(C3)C12 (stereo unspecified)
inactive
O=C(O)c1cccc(N(Cc2cccnc2)c2ccc(OC(F)F)c(OC(F)F)c2)c1
32.4 µM (active)
Cn1c(=O)c2c(ncn2C)n(C)c1=O
inactive
COCCOc1cc2cc(C(=O)NC3CCN(C(C)C)CC3)n(CC(=O)Nc3ccc(Cl)cn3)c2cn1
inactive
COc1ccc(-n2nc(C(F)F)cc2-c2ccc(S(C)=O)cc2)cc1 (stereo unspecified)
inactive

Suppose we examine the compound CC(O)CN(CCN(CC(C)O)CC(C)O)CC(C)O (stereo unspecified) ; what AC50 value has been reported?
inactive

* * *

Read-out: solute carrier (SLCO1B1), SLCO1B1 (gene 10599)
assayOverview: LTEA_HepaRG_SLCO1B1: Life Technologies and Expression Analysis (LTEA) Assay for solute carrier (SLCO1B1) using HepaRG (AID 2283530)
condition: mRNA level, 48 h; actives raise or lower the signal
Calls of active or inactive are those of the source. How the source made its calls: active means hit-call score of the fitted dose curve at least 0.9, where 1 is the maximum; inactive means score below 0.9.
Choose one outcome from this list and give only that: active, inactive

Some entries whose results are on file:
COC(=O)CC(=O)OC
inactive
Cn1c(=O)cc(Oc2ccc(F)cc2F)c2cnc(NCC(C)(C)O)nc21
inactive
COc1ccc(-n2nc(C(F)F)cc2-c2ccc(S(C)=O)cc2)cc1 (configuration not stated)
inactive
CC(C)CCCCCCOC(=O)c1ccc(C(=O)OCCCCCCC(C)C)c(C(=O)OCCCCCCC(C)C)c1
inactive

Answer briefly: the call reported for "Clc1nc(Cl)c(Cl)c(Cl)c1Cl" in this assay.
inactive

Try the compound CNS(=O)(=O)c1cc(C(=O)N2CCC(CCN3C4CCC3CC(n3c(C)nc5ccccc53)C4)(c3cccc(F)c3)CC2)c(Cl)cc1F (configuration not stated)
active

Try the compound "O=P(OC(CCl)CCl)(OC(CCl)CCl)OC(CCl)CCl"
active

Try the compound "C=CC(=C)CCC=C(C)C"
inactive

Try the compound "Nc1nc2ncc(CNc3ccc(C(=O)N[C@@H](CCC(=O)O)C(=O)O)cc3)nc2c(=O)[nH]1"
inactive

Reference source for all entries: PubChem BioAssay (EPA / NIEHS)
